Molecular target: Human complement C1s enzyme (Homo sapiens)
Assay: Human C1s enzyme assay
Format: biochemical
Conditions: human complement C1s enzyme 1.16 nM, substrate Z-L-Lys-SBzl 100 μM, 5 min preincubation; read-out: IC50 (Stars), C1s Inhibiting Activity

# Chem smiles, IC50
rows = [
    ("O=C(NCC(=O)N1CC2(C[C@H]1C(=O)NCc1cc3c(Cl)nccc3[nH]1)OCCO2)c1ccc2c(c1)Oc1ccccc1S2", "> 1 µM"),
    ("Cc1cc2[nH]c(CNC(=O)[C@@H]3C[C@]4(C)C[C@@H]4N3C(=O)CNC(=O)c3ccc4c(c3)Oc3ccccc3S4)cc2cn1", "> 1 µM"),
    ("C[C@@]12C[C@@H]1N(C(=O)CNC(=O)CCCOc1ccccc1)[C@H](C(=O)NC1(c3nc4cnccc4[nH]3)CC1)C2", "> 1 µM"),
    ("COC[C@@]1(F)C[C@@H](C(=O)NCc2cc3cnccc3[nH]2)N(C(=O)CNC(=O)c2ccc3c(c2)Oc2ccccc2S3)C1", "< 0.1 µM"),
    ("Cc1ccc(Oc2cccc(C(=O)NCC(=O)N3N=CC[C@H]3C(=O)NCc3cc4cnccc4[nH]3)c2F)cc1", "< 0.1 µM"),
    ("CS(=O)(=O)[C@@H]1C[C@@H](C(=O)N[C@H](CO)c2cc3cnccc3[nH]2)N(C(=O)CNC(=O)c2ccc3c(c2)Oc2ccccc2S3)C1", "< 0.1 µM"),
    ("O=C(NCC(=O)N1C[C@H](OC(F)F)C[C@H]1C(=O)NCc1cc2cnccc2[nH]1)c1ccc2c(c1)-c1ccccc1C2(F)F", "< 0.1 µM"),
    ("O=C(NCC(=O)N1C[C@H](OC(F)F)C[C@H]1C(=O)NCc1cc2cnccc2[nH]1)c1ccc2c(c1)Oc1ccccc1S2", "< 0.1 µM"),
    ("O=C(NCC(=O)N1CC2(C[C@H]1C(=O)NCc1ccn[nH]1)OCCO2)c1ccc(Oc2ccccc2)cc1", "> 1 µM"),
    ("O=C(NCC(=O)N1C[C@H](OC(F)F)C[C@H]1C(=O)NCc1ccc2[nH]ccc2c1)c1ccc2c(c1)Oc1ccccc1S2", "> 1 µM"),
    ("Cc1ccc(Oc2cccc(C(=O)NCC(=O)N3CC4(C[C@H]3C(=O)N[C@H](C)c3cc5cnccc5[nH]3)OCCO4)c2)c(F)c1", "< 0.1 µM"),
    ("C[C@@]12C[C@@H]1N(C(=O)CNC(=O)c1ccc3c(c1)Oc1ccccc1S3)[C@H](C(=O)NCc1ccc3c(c1)B(O)OC3)C2", "> 1 µM"),
    ("O=C(NCC(=O)N1CC=C[C@H]1C(=O)NCc1cc2cnccc2[nH]1)c1ccc2c(c1)Oc1ccccc1S2", "< 0.1 µM"),
]

----------
Target: Human complement C1s enzyme (Homo sapiens, UniProt P09871)
Sequence (P09871 438-688 limits assumed): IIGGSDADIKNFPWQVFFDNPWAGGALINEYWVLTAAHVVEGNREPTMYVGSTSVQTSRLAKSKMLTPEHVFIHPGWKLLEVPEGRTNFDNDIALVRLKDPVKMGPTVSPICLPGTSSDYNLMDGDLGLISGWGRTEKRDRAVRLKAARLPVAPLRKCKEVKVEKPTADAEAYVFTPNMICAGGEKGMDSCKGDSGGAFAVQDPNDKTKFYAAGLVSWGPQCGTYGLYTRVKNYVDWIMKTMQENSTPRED
Sequence (P09871 16-437 partner limits assumed): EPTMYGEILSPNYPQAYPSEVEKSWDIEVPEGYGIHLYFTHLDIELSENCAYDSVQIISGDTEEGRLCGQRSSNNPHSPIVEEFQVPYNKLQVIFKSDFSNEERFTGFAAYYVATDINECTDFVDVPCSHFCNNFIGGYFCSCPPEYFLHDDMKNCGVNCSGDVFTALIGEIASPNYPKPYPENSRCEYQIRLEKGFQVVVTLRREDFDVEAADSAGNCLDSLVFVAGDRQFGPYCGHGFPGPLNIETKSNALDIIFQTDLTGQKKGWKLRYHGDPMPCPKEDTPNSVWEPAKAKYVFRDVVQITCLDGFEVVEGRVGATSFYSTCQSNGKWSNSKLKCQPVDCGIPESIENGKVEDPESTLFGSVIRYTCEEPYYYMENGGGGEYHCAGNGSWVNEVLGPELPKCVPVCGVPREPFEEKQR
Assay: Human C1s enzyme assay
Type: biochemical
Settings: human complement C1s enzyme 1.16 nM, substrate Z-L-Lys-SBzl 100 μM, 5 min preincubation; read-out: IC50 (Stars), C1s Inhibiting Activity
pIC50: −log10 of the molar value.

# Compound, pIC50
data = [
    ("C[C@@H](NC(=O)[C@@H]1C[C@@H](OC(F)F)CN1C(=O)CNC(=O)c1cccc2c1-c1ccccc1C2(F)F)c1cc2cnccc2[nH]1 [Compound 134]", "< 6.00"),
    ("C[C@@H](NC(=O)[C@@H]1C[C@@H](C2OCCCO2)CN1C(=O)CNC(=O)c1ccc2c(c1)Oc1ccccc1S2)c1cc2cnccc2[nH]1 [Compound 145]", "> 7.00"),
    ("O=C(NCC(=O)N1CC2(C[C@H]1C(=O)O)OCCO2)c1ccc(Oc2ccccc2)cc1 [Compound 119]", "< 6.00"),
    ("C[C@@]12C[C@@H]1N(C(=O)CNC(=O)CCCOc1ccccc1)[C@H](C(=O)N[C@H]1CCn3c(CN)ccc31)C2 [Compound 69]", "< 6.00"),
]
